Target: T1, human CD30, native, expressed on cells (human)
T1 construct: also called native CD30; CD30 on L540, L428, A431/CD30, Karpas299, SUDHL-1 and other CD30-positive cells
T1 chain: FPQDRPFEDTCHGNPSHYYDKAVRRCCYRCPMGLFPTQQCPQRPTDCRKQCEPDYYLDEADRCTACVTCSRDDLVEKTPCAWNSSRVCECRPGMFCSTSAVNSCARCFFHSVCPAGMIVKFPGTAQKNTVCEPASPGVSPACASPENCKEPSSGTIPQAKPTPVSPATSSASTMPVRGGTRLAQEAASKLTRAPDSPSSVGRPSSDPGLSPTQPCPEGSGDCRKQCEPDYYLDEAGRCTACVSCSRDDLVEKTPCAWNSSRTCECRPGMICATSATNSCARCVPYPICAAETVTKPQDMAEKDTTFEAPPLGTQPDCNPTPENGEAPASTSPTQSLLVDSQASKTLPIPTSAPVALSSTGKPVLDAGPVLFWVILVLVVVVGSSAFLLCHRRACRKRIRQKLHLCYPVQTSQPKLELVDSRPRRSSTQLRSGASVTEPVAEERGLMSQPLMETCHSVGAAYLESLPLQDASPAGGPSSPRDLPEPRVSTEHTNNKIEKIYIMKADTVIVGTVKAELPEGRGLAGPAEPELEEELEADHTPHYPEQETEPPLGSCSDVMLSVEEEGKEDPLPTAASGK
Assay: competitive FACS on L540 cells, unlabeled MAb 2.5 µg/ml; competitor: biotin-T25
Measured Attribute: inhibition of the binding of biotin-MAb (%)
Provide the reading as a plain figure in %.

Examples with their reported inhibition of the binding of biotin-MAb (%) follow.
binder="T24 MAb (antibody, V domains shown) VH: QVQLQQPGAELVRPGASVKLSCKASGYSFTSYWIDWVKQRPGQGLEWIGNIYPSNAYTNYNQKFKDKATLTVDKSSSTAYMQLSSPTSEDSAVYYCTSVLDYFYAMDYWGQGTSVTVSS VL: DIQMTQTTSSLSASLGDRVTISCRASQDISNYLNWYQQKPDGTVKLLIYYTSRLHSGVPSRFSGSGSGTDYSLTISNLEQEDIATYFCQQVNTLPRTFGGGTKLEIKR" reported_result=97.8
binder="T13 MAb (antibody, V domains shown) VH: QVQLQQSGAELAKPGASVKMSCKASGYTFTTYWMHWVKQRPGQGLEWIGYINPSTGYTDYNEKFKDKATLTADKSSSTAYMQLSSLTSEDSAVYYCVRRGSYDGNPFAYWGQGTLVSVSA VL: DIVMTQSHKFMSTSVGDRVTITCKASQDVSTAVAWYQQKPGHSPKLLIYWASTRHTGVPDRFTGSGSGTDYTLTISSVQVEDLALYYCQQHYSTPFTFGSGTKLEIKR" reported_result=26.7
binder="T6 MAb (antibody, V domains shown) VH: QVQLKESGPGLVTPSQSLSITCTVSGFSLSKYSIHWVRQPPGRGLEWLGMIWGVENTDYNSALKSRLSISKDNSKSQVFLKMNSLQSDDTAMYYCARKDLGLYGMNYWGQGISVTVSA VL: DIVMTQSQKFMSTSVGDRVSVTCKASQNVGTNVAWYQQKPGQSPKALFYSASYRYSGVPDRFIGSGSGTVFTLTISNVQSEDLAEYFCQQYNTYPLTFGSGTKLEIER" reported_result=25

Here is another binder to look at.
Query: Reported inhibition of the binding of biotin-MAb (%), binder T25 MAb (antibody, V domains shown) VH: QVTLKESGPGILQPSQTLSLTCSFSGFSLNTSGVGVGWIRQPSGKGLEWLAHIWWDDDERYNPVLKSRLTISKDTSSNQVFLKIANVDTADSATYYCVRSMVAWFPYWGRGTLVTVSA VL: DIVMSQSPSSLAVSVGEKFTVNCKSSQSLLYSSNQKNFLAWYQQKPGQSPKLLIYWASTRESGVPDRFIGSGSGTDFTLTISSVKAEDLAVYYCQQHYRYPWTFGGGTKLEIKR : ____
Response: 79.8
